Let's look at some molecules and their measured Kb.
# Assay system: LTD4 -induced contractions of guinea-pig trachea (Cavia porcellus, UniProt Q2NNR5)
# Construct: contractions of guinea-pig tracheae; from tissue; host or cells: guinea-pig trachea
# Sequence (Q2NNR5 1-340): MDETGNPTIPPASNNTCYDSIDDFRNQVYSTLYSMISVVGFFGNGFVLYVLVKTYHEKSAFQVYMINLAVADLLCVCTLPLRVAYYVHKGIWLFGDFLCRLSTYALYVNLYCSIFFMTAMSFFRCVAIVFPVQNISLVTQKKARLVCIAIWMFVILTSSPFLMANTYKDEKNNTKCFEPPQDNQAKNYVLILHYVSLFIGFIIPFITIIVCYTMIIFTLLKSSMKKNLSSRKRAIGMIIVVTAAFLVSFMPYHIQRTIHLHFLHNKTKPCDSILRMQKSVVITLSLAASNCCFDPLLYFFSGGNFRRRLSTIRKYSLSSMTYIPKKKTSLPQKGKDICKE
# Assay summary: inhibition of LTD4-induced contractions of guinea-pig trachea
# Assay type: cell-based
# Stated conditions: read-out: pKB values for the inhibition of LTD4 -induced contractions of guinea-pig trachea (converted)
Experimental readout: Kb (nM)

smiles_structure=O=C(O)CC(=O)Nc1cc(C(=O)O)ccc1OCCCc1ccc(OCCCCOc2ccccc2)cc1 assay_system="LTD4 -induced contractions of guinea-pig trachea (Cavia porcellus, UniProt Q2NNR5)" assay_result=251
smiles_structure=CS(=O)(=O)Nc1ccc(OCCCc2ccc(OCCCCOc3ccccc3)cc2)c(C(=O)O)c1 assay_system="LTD4 -induced contractions of guinea-pig trachea (Cavia porcellus, UniProt Q2NNR5)" assay_result=2000
smiles_structure=O=C(O)c1cccc(NC(=O)c2cc(C(=O)O)ccc2OCCCc2ccc(OCCCCOc3ccccc3)cc2)c1 assay_system="LTD4 -induced contractions of guinea-pig trachea (Cavia porcellus, UniProt Q2NNR5)" assay_result=631
smiles_structure=O=C(O)CCCC(=O)c1cc(C(=O)O)ccc1NC(=O)CCc1ccc(OCCCCOc2ccccc2)cc1 assay_system="LTD4 -induced contractions of guinea-pig trachea (Cavia porcellus, UniProt Q2NNR5)" assay_result=31.6
smiles_structure=O=C(O)CCCNC(=O)c1cc(C(=O)O)ccc1OCCCc1ccc(OCCCCOc2ccccc2)cc1 assay_system="LTD4 -induced contractions of guinea-pig trachea (Cavia porcellus, UniProt Q2NNR5)" assay_result=126
smiles_structure=O=C(O)CCNC(=O)c1cc(C(=O)O)ccc1OCCCc1ccc(OCCCCOc2ccccc2)cc1 assay_system="LTD4 -induced contractions of guinea-pig trachea (Cavia porcellus, UniProt Q2NNR5)" assay_result=79.4
smiles_structure=O=C(O)CCCCCOc1cc(C(=O)O)ccc1NC(=O)CCc1ccc(OCCCCOc2ccccc2)cc1 assay_system="LTD4 -induced contractions of guinea-pig trachea (Cavia porcellus, UniProt Q2NNR5)" assay_result=79.4
smiles_structure=O=C(O)CCC(=O)Nc1cc(C(=O)O)ccc1SCCc1ccc(OCCCCOc2ccccc2)cc1 assay_system="LTD4 -induced contractions of guinea-pig trachea (Cavia porcellus, UniProt Q2NNR5)" assay_result=316
